ED50 values by entry
tested on: righting reflex loss induced by oxymorphone; experiment: animal or person; type: in vivo, rats; conditions: Rattus norvegicus; SC; oxymorphone 1.5 mg./kg. sc.; as free base; read-out: ED50, Antagonist Activity, Oxymorphone Narcosis, SC
Number in mg/kg, nothing else.

[[record]]
compound = "CCC[C@]12CCN(CC3CC3)[C@H](Cc3ccc(O)cc31)[C@@]2(C)O (relative stereo)"
result_number = 0.08

[[record]]
compound = "C[C@H]1[C@H]2Cc3ccc(O)cc3[C@]1(C)CCN2CC1CC1"
result_number = 0.12

[[record]]
compound = "C=CC[C@]12CCN(CC3CCC3)[C@H](Cc3ccc(O)cc31)[C@@]2(C)O (relative stereo)"
result_number = 0.3


Asked: Tell me measured ED50 for C=CCN1CC[C@]23CCCC[C@H]2[C@H]1Cc1ccc(O)cc13 please.
Given back: 0.32

Asked: State, in one line, measured ED50 of C=CCN1CC[C@]23c4c5ccc(O)c4O[C@H]2[C@@H](O)C=C[C@H]3[C@H]1C5
Given back: 0.58

---

test system: Straub Tail induced by oxymorphone; test: Antagonist activity: antagonism of Straub Tail induced by oxymorphone; format: in vivo, mice; conditions: Mus musculus; PO; oxymorphone 2 mg./kg. sc.; as free base; read-out: ED50, Antagonist Activity, Oxymorphone Straub Tail, PO
Each entry below lists one item and its recorded ED50 value.
API: value field is a number in mg/kg; no unit string.

Past entries and their recorded results:
[[record]]
compound = "CC(C)=CCN1CCC2(C)c3cc(O)ccc3CC1C2C (stereo not drawn)"
test_target = "Straub Tail induced by oxymorphone"
readout_label = "ED50"
unit_tag = "mg/kg"
result_number = 187

[[record]]
compound = "C=CCN1CC[C@]23c4c5ccc(O)c4O[C@H]2C(=O)CC[C@@]3(O)[C@H]1C5"
test_target = "Straub Tail induced by oxymorphone"
readout_label = "ED50"
unit_tag = "mg/kg"
result_number = 13.1

[[record]]
compound = "C[C@H]1[C@H]2Cc3ccc(O)cc3[C@]1(C)CCN2CC1CC1"
test_target = "Straub Tail induced by oxymorphone"
readout_label = "ED50"
unit_tag = "mg/kg"
result_number = 24

[[record]]
compound = "C=CC[C@]12CCN(CC3CC3)[C@H](Cc3ccc(O)cc31)[C@@]2(C)O (relative stereo)"
test_target = "Straub Tail induced by oxymorphone"
readout_label = "ED50"
unit_tag = "mg/kg"
result_number = 16


Attention now turns to another entry.
Asked: Look up and report ED50, with Straub Tail induced by oxymorphone as system, for C=CCN1CC[C@]23CCCC[C@H]2[C@H]1Cc1ccc(O)cc13
Given back: 46
